- Tested on: KRAS patient-derived spheroids with HUVEC/MSC, viability
- protocolText: Anticancer human tumor 323965-272-R-J2-PDC patient-derived pancreatic carcinoma cell line growth inhibition [KRAS2]
- experimentalConditions: second compound 0.316 µM; first compound 0.0316 µM; stronger effect = lower value
// reported viability, T/C per item
// note: answer is a bare numeric in %

CC(=O)Nc1cccc(-n2c(=O)n(C3CC3)c(=O)c3c(Nc4ccc(I)cc4F)n(C)c(=O)c(C)c32)c1 + COc1cc2nc(C)nc(NC(C)c3cc(N)cc(C(F)(F)F)c3)c2cc1OC1CCOC1 :: 22
CC1(C)CCC(CN2CCN(c3ccc(C(=O)NS(=O)(=O)c4ccc(NCC5CCOCC5)c([N+](=O)[O-])c4)c(Oc4cnc5[nH]ccc5c4)c3)CC2)=C(c2ccc(Cl)cc2)C1 + CC1OCC2(CCN(c3cnc(Sc4ccnc(N)c4Cl)c(N)n3)CC2)C1N :: 56.9

Input line: Fill in the blank: the reported viability, T/C of CC(=O)OC12COC1CC(O)C1(C)C(=O)C(O)C3=C(C)C(OC(=O)C(O)C(NC(=O)OC(C)(C)C)c4ccccc4)CC(O)(C(OC(=O)c4ccccc4)C21)C3(C)C (centres undefined) + C=CC(=O)N1CCN(c2nc(=O)n(-c3c(C)ccnc3C(C)C)c3nc(-c4c(O)cccc4F)c(F)cc23)C(C)C1 is ____.
Output line: 21.5

Input line: Would you kindly repeat that for COc1cc2nccc(Oc3ccc(NC(=O)C4(C(=O)Nc5ccc(F)cc5)CC4)cc3)c2cc1OC + C=CC(=O)N1CCN(c2nc(OCC3CCCN3C)nc3c2CCN(c2cccc4cccc(C)c24)C3)CC1CC#N ?
Output line: 58.9

###

- Tested on: KRAS patient-derived spheroids with HUVEC/MSC, viability
- protocolText: Anticancer human tumor 323965-272-R-J2-PDC cell line growth inhibition [KRAS2];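 also: spheroids exposed to agents for 7 days; 100% = DMSO vehicle control viability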
- experimentalConditions: second compound 1 µM; first compound 0.0316 µM; stronger effect = lower value
// assign Met if viability, T/C falls strictly below 80%, else Not met (ties count as Not met)

CC1OCC2(CCN(c3cnc(Sc4ccnc(N)c4Cl)c(N)n3)CC2)C1N (stereo not given) + COc1cc2nc(C)nc(NC(C)c3cc(N)cc(C(F)(F)F)c3)c2cc1OC1CCOC1 :: Met

Input line: Is viability, T/C strictly under 80% for the entry CC1OCC2(CCN(c3cnc(Sc4ccnc(N)c4Cl)c(N)n3)CC2)C1N (stereo not given) + C=CC(=O)N1CCN(c2nc(OCC3CCCN3C)nc3c2CCN(c2cccc4cccc(C)c24)C3)CC1CC#N ?
Output line: Met

Input line: Would you kindly repeat that for CC(=O)OC12COC1CC(O)C1(C)C(=O)C(O)C3=C(C)C(OC(=O)C(O)C(NC(=O)OC(C)(C)C)c4ccccc4)CC(O)(C(OC(=O)c4ccccc4)C21)C3(C)C (stereo not given) + CNCc1ccccc1-c1csc(C(C)Nc2nc(C)nc3cc(OC)c(OC)cc23)c1 ?
Output line: Met

Input line: Would you kindly repeat that for CCNC(=O)CC1N=C(c2ccc(Cl)cc2)c2cc(OC)ccc2-n2c(C)nnc21 (stereo not given) + C=CC(=O)N1CCN(c2nc(=O)n(-c3c(C)ccnc3C(C)C)c3nc(-c4c(O)cccc4F)c(F)cc23)C(C)C1 ?
Output line: Met

Input line: Would you kindly repeat that for COc1cc2nccc(Oc3ccc(NC(=O)C4(C(=O)Nc5ccc(F)cc5)CC4)cc3)c2cc1OC + COc1cc2nc(C)nc(NC(C)c3cc(N)cc(C(F)(F)F)c3)c2cc1OC1CCOC1 ?
Output line: Not met

Input line: Would you kindly repeat that for COc1cc2nccc(Oc3ccc(NC(=O)C4(C(=O)Nc5ccc(F)cc5)CC4)cc3)c2cc1OC + CNCc1ccccc1-c1csc(C(C)Nc2nc(C)nc3cc(OC)c(OC)cc23)c1 ?
Output line: Not met
